Each recorded value in this set is attributed to ChEMBL document CHEMBL5107996.

Tested on: HCT-116
methodSummary: Antiproliferative activity against human HCT-116 cells expressing wild type MTAP assessed as cell viability after 10 days by CellTiter-Glo assay
Format: functional, cell-based
assaySetup: HCT-116, 240 h
pIC50: −log10 of the molar value.
Lab note: anything with pIC50 at or over 6 counts as yes (1); the rest go in no (0).

smilesCode: COCc1cc(-c2cnn(C)c2-c2sc3ccccc3c2C#N)cc2c(CN)n[nH]c(=O)c12
experimentalSystem: HCT-116
className: yes (1)
--
smilesCode: Cn1ncc(-c2cc(C(F)F)c3c(=O)[nH]nc(CN)c3c2)c1-c1sc2ccccc2c1C#N
experimentalSystem: HCT-116
className: no (0)
--
smilesCode: Cn1ncc(-c2cc([C@H]3CCCO3)c3c(=O)[nH]nc(CN)c3c2)c1-c1sc2ccccc2c1C#N
experimentalSystem: HCT-116
className: yes (1)
--
smilesCode: Cn1ncc(-c2cc([C@@H]3CCCO3)c3c(=O)[nH]nc(CN)c3c2)c1-c1sc2ccccc2c1C#N
experimentalSystem: HCT-116
className: no (0)
--
smilesCode: CCOc1cc(-c2cnn(C)c2-c2sc3ccccc3c2C#N)cc2c(CN)n[nH]c(=O)c12
experimentalSystem: HCT-116
className: yes (1)

Continue with the compound presented below.
## Input Tell me whether pIC50 is at least 6 here: Cn1ncc(-c2cc(O)c3c(=O)[nH]nc(CN)c3c2)c1-c1sc2ccccc2c1C#N
## Output no (0)
